# Tested on: Staphylococcus aureus 209P JC-1 strain
# TEST_DETAILS: antibacterial activity (MIC), standard in vitro dilution test
# Assay type: cell-based
# CONDITION_LABEL: Staphylococcus aureus, 209P, test bacterium strain 10^5 cfu/ml; read-out: MIC, Staphylococcus aureus 209P JC-1 strain
# Description: With respect to certain compounds (I) of the present invention, their general antibacterial activities and their antibacterial activities (MIC) against various methicillin-resistant strains of Staphylococcus aureus (methicillin-resistant Staphylococcus aureus: MRSA) were investigated. The results will be shown next. Of the investigations, the general antibacterial activities were investigated by a standard in vitro dilution test. […]
The molecules listed here are annotated with their MIC.
Provide only the numeric value, understood in µg/mL.

Reference set (2 entries):
MOLECULE: CC[C@H](O)[C@@H]1C(=O)N2C(C(=O)O)=C(S[C@H]3CCN(C(=N)Nc4ccccc4)C3)S[C@H]12
OUTCOME_MEASURE: MIC
UNIT_INFO: µg/mL
NUMERIC_VALUE: 0.2
--
MOLECULE: CC[C@H](O)[C@@H]1C(=O)N2C(C(=O)O)=C(S[C@H]3CCN(CCC(=O)c4ccccc4)C3)S[C@H]12
OUTCOME_MEASURE: MIC
UNIT_INFO: µg/mL
NUMERIC_VALUE: 0.05

So, "CC[C@H](O)[C@@H]1C(=O)N2C(C(=O)O)=C(S[C@H]3CCN(CC(=O)c4ccccc4)C3)S[C@H]12" ? Its MIC was 0.1

So, "CC[C@H](O)[C@@H]1C(=O)N2C(C(=O)O)=C(S[C@H]3CCN(c4ccccn4)C3)S[C@H]12" ? Its MIC was 0.1

So, "CC[C@H](O)[C@@H]1C(=O)N2C(C(=O)O)=C(S[C@H]3CCN(CC(=O)c4ccc5c(c4)OCO5)C3)S[C@H]12" ? Its MIC was 0.1

So, "CC[C@H](O)[C@@H]1C(=O)N2C(C(=O)O)=C(SC3Cc4ccccc4C3)S[C@H]12" ? Its MIC was 0.05

So, "CC[C@H](O)[C@@H]1C(=O)N2C(C(=O)O)=C(SCc3ccccn3)S[C@H]12" ? Its MIC was 0.2

So, "CC[C@H](O)[C@@H]1C(=O)N2C(C(=O)O)=C(S[C@H]3CCN(C(C)=N)C3)S[C@H]12" ? Its MIC was 0.1

So, CC[C@H](O)[C@@H]1C(=O)N2C(C(=O)O)=C(SC3CCN(C(=N)NC(=O)c4ccccc4)C3)S[C@H]12 (stereo partly drawn) ? Its MIC was 0.2

So, "CC[C@H](O)[C@@H]1C(=O)N2C(C(=O)O)=C(SCCN(C)CC(=O)c3ccccc3)S[C@H]12" ? Its MIC was 0.1

So, "CC[C@H](O)[C@@H]1C(=O)N2C(C(=O)O)=C(S[C@H]3CCN(C4Cc5ccccc5C4)C3)S[C@H]12" ? Its MIC was 0.1

So, "CC[C@H](O)[C@@H]1C(=O)N2C(C(=O)O)=C(S[C@H]3CCN(c4ncccn4)C3)S[C@H]12" ? Its MIC was 0.39

So, CC[C@H](O)[C@@H]1C(=O)N2C(C(=O)O)=C(SC3CCN(C/C=C/c4ccccc4)C3)S[C@H]12 (stereo partly drawn) ? Its MIC was 0.05

So, "CC[C@H](O)[C@@H]1C(=O)N2C(C(=O)O)=C(S[C@H]3CCN(Cc4ccccn4)C3)S[C@H]12" ? Its MIC was 0.2

So, "CC[C@H](O)[C@@H]1C(=O)N2C(C(=O)O)=C(S[C@H]3CCN(CCOc4ccccc4)C3)S[C@H]12" ? Its MIC was 0.1
